Sourced from patent US6858638B2

Target: human IGF1R cytoplasmic domain (Homo sapiens)
Construct: The human IGF1R cytoplasmic domain was cloned; made in house; host or cells: SF21 insect cells (baculovirus)
Sequence (P08069 960-1367 limits assumed): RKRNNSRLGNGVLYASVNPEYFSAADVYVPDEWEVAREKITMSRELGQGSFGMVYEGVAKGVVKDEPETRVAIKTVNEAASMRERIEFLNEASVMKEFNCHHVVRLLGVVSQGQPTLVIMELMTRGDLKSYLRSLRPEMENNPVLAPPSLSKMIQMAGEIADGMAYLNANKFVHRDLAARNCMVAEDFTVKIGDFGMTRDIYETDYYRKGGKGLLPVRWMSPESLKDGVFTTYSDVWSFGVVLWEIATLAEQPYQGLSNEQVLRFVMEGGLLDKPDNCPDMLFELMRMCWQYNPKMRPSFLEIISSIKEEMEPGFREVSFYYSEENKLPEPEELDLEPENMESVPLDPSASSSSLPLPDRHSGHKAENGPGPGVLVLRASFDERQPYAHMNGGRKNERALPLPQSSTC
Test: IGF1R autophosphorylation inhibition, time resolved fluorescence (HTRF) assay
Type: biochemical
Conditions: 10 μM; read-out: IGF1R % inhib at 10 μM
ASSAY_ENDPOINT: inhibition at 10 µM (%)
The response must be a number in % with no trailing unit.

Would you please look over these solved cases?
INSERT INTO measurements (smiles_str, numeric_result) VALUES
  ('CS(=O)(=O)c1ccccc1S(=O)(=O)Nc1ccc2[nH]nc(-c3ccc(-c4ccccc4)cc3)c2c1', 41),
  ('Nc1n[nH]c2ccc(NS(=O)(=O)c3cc(F)cc(F)c3)cc12', 0);

Documented inhibition at 10 µM of `O=S(=O)(Nc1ccc2[nH]nc(-c3cc4ccccc4[nH]3)c2c1)c1ccccc1` : 100

Please fill in: inhibition at 10 µM reported for `CS(=O)(=O)c1ccccc1S(=O)(=O)Nc1ccc2[nH]nc(-c3ccc(Br)cc3F)c2c1` = 65

Record summary for `CS(=O)(=O)c1ccccc1S(=O)(=O)Nc1ccc2[nH]nc(Sc3ccccc3)c2c1` : reported inhibition at 10 µM = 82

GET /value?item= `CS(=O)(=O)c1ccccc1S(=O)(=O)Nc1ccc2[nH]nc(-c3cccc(Cl)c3Cl)c2c1` &field=inhibition at 10 µM returns 0

Reported inhibition at 10 µM for `Nc1cc(Cl)cc(Cl)c1S(=O)(=O)Nc1ccc2[nH]nc(-c3ccccc3)c2c1` was 58

Given item `CS(=O)(=O)c1ccccc1S(=O)(=O)Nc1ccc2[nH]nc(/C=C/c3ccc(F)cc3)c2c1` , the value recorded as its inhibition at 10 µM is 95
